target: PI3-kinase p110-delta/p85-alpha (Homo sapiens, UniProt O00329); experiment: Inhibition of p110delta/p85alpha (unknown origin) incubated for 40 mins by luciferase based ATP depletion assay; type: protein-complex assay
Sequence (P27986 whole entry): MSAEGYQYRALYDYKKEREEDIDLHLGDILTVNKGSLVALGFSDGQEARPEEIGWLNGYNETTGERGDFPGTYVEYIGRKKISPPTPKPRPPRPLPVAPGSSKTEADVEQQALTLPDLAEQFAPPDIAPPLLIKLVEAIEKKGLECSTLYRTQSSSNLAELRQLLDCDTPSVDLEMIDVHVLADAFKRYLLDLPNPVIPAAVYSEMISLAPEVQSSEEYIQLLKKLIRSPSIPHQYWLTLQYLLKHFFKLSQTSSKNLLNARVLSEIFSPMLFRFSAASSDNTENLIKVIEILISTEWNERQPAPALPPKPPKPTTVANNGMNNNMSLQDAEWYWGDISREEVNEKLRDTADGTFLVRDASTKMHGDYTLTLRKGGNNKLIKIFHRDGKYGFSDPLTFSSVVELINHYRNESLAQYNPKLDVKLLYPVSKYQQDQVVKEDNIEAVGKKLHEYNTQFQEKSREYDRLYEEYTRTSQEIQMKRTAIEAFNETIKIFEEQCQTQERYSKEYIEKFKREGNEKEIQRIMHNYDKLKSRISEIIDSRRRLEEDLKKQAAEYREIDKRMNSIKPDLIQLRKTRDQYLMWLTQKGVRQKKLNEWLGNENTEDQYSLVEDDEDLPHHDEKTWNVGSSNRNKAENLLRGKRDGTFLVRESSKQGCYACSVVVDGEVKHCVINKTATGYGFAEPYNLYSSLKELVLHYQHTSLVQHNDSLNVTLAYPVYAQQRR
Sequence (O00329 whole entry): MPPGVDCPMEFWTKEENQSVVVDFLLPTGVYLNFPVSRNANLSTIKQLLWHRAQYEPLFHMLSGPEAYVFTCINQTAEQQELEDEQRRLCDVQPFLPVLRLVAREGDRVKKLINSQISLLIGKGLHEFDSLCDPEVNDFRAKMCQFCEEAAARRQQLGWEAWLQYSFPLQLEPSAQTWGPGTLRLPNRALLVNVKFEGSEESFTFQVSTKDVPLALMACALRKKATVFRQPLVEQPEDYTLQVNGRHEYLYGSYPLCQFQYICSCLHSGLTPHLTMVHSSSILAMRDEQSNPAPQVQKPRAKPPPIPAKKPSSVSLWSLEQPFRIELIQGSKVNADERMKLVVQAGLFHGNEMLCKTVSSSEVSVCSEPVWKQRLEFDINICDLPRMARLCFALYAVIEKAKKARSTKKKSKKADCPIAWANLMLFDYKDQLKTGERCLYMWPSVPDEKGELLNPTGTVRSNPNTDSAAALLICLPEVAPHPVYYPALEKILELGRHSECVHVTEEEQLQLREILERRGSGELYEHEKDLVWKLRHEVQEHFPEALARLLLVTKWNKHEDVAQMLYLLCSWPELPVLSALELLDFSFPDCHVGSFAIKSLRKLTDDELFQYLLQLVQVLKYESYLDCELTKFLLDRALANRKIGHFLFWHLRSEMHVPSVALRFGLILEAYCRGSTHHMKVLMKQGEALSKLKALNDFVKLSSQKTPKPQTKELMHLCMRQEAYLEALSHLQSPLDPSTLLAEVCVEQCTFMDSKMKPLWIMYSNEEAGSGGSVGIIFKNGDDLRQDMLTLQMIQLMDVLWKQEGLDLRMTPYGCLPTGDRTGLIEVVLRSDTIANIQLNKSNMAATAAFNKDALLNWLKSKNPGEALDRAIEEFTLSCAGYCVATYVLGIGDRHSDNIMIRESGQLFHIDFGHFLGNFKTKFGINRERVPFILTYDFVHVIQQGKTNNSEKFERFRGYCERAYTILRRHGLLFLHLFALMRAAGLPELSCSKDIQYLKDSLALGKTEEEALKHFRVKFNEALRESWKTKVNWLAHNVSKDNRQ
readoutType: pIC50
# log scale: pIC50 equals minus log10 of the concentration in mol/L

Quick one: give measured pIC50 for CCN(CC)CCNC(=O)Nc1nc2ccc(-c3cnc(OC)c(NS(=O)(=O)c4ccc(F)cc4)c3)cc2s1
6.83

----------
molecular target: PI3K p110 beta/p85 alpha (Homo sapiens, UniProt P42338); assay: Inhibition of p110beta/p85alpha (unknown origin) incubated for 40 mins by luciferase based ATP depletion assay
Sequence (P42338 whole entry, one chain of several): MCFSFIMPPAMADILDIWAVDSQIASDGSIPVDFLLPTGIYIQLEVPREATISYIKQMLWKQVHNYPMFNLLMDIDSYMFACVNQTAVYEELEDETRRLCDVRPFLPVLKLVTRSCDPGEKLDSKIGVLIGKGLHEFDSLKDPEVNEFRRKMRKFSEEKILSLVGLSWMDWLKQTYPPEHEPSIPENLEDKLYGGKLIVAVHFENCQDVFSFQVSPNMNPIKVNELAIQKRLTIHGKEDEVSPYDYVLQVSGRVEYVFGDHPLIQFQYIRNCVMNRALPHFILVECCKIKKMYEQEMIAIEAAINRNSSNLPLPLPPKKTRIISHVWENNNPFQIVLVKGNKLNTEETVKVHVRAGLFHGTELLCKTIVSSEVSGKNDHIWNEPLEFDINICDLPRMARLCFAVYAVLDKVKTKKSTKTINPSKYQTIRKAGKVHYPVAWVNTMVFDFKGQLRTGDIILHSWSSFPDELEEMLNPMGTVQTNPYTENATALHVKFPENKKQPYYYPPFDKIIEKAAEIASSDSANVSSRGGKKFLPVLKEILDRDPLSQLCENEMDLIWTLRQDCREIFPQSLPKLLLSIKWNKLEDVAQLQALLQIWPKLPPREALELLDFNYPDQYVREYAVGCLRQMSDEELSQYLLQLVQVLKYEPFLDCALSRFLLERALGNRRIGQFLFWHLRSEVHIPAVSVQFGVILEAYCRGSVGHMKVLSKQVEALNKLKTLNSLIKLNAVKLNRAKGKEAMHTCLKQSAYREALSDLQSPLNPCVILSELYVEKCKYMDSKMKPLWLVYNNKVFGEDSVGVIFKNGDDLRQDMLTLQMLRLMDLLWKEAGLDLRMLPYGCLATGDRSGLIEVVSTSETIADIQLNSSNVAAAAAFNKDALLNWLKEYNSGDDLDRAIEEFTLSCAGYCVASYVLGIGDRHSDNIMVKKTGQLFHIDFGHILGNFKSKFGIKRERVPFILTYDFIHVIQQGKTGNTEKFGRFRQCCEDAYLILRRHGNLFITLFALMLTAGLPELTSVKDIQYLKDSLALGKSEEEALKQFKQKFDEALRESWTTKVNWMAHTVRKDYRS
readoutType: pIC50
Reminder that pIC50 means the negative base-10 logarithm of the concentration expressed in mol/L.

Specify measured pIC50 for CCN(CC)CCNC(=O)Nc1nc2ccc(-c3cnc(OC)c(NS(=O)(=O)c4ccc(F)cc4)c3)cc2s1 .
7.05

----------
# reported pIC50; entries follow
system: A549; test: Antiproliferative activity against human A549 cells incubated for 72 hrs by MTT assay; format: functional, cell-based; conditions: A549, 72 h
Please note pIC50 is a logarithmic value: minus log10 of concentration in mol/L. Answer with that number alone.

entrySmiles | readoutType | endpointResult
O=C(Nc1nc2ccc(-c3cnc(Cl)c(NS(=O)(=O)c4ccc(F)cc4)c3)cc2s1)NC1CC1 | pIC50 | 5.99

Supply recorded pIC50 for COc1ccc(-c2ccc3nc(NC(=O)NCCN4CCOCC4)sc3c2)cn1 here.
5.29

Read off the recorded pIC50 for Cn1c(=O)n(-c2ccc(C(C)(C)C#N)cc2)c2c3cc(-c4cnc5ccccc5c4)ccc3ncc21
6.12

Please supply the value of reported pIC50 for the item O=C(NCCN1CCOCC1)Nc1nc2ccc(-c3cnc(Cl)c(NS(=O)(=O)c4ccc(F)cc4)c3)cc2s1
5.17

State its pIC50 for this molecule: COc1ncc(-c2ccc3nc(NC(=O)NCCN4CCOCC4)sc3c2)cc1NS(=O)(=O)C1CC1
5.72

For the molecule COc1ncc(-c2ccc3nc(NC(=O)NCCN4CCCC4)sc3c2)cc1NS(=O)(=O)c1ccc(F)cc1 , give its reported pIC50.
6.52

Please list pIC50 recorded for the molecule COc1ncc(-c2ccc3nc(NC(=O)NCCN(C)C)sc3c2)cc1NS(=O)(=O)c1ccc(F)cc1
6.33

# return recorded pIC50 for input CCN(CC)CCNC(=O)Nc1nc2ccc(-c3cnc(Cl)c(NS(=O)(=O)c4ccc(F)cc4)c3)cc2s1
5.28

----------
test system: A549; assay: Antiproliferative activity against human A549 cells incubated for 72 hrs by MTT assay; type: functional, cell-based; conditions: A549, 72 h
Let's look at some compounds and their measured IC50.
Numbers only here, please. The scale is nM.

Answered examples (10):
entrySmiles | targetOfAssay | unitsOfMeasure | IC50
COc1ncc(-c2ccc3nc(NC(=O)NCCN4CCOCC4)sc3c2)cc1NS(=O)(=O)c1ccc(F)cc1 | A549 | nM | 430
COc1ncc(-c2ccc3nc(NC(=O)NCCN4CCOCC4)sc3c2)cc1C#N | A549 | nM | 4710
CNC(=O)Nc1nc2ccc(-c3cnc(OC)c(NS(=O)(=O)c4ccc(F)cc4)c3)cc2s1 | A549 | nM | 1560
COc1ncc(-c2ccc3nc(NC(=O)NCCN4CCOCC4)sc3c2)cc1NS(=O)(=O)c1ccc(Cl)cc1 | A549 | nM | 530
COc1ncc(-c2ccc3nc(NC(=O)NCCN4CCOCC4)sc3n2)cc1NS(=O)(=O)c1ccc(F)cc1 | A549 | nM | 490
CCN(CC)CCNC(=O)Nc1nc2ccc(-c3cnc(OC)c(NS(=O)(=O)c4ccc(F)cc4)c3)cc2s1 | A549 | nM | 450
COc1ncc(-c2ccc3nc(NC(=O)NC4CC4)sc3c2)cc1NS(=O)(=O)c1ccc(F)cc1 | A549 | nM | 900
CCN(CC)CCNC(=O)Nc1nc2ccc(-c3cnc(OC)c(NS(=O)(=O)c4ccc(C)cc4)c3)cc2s1 | A549 | nM | 310
CC(=O)Nc1nc2ccc(-c3cnc(Cl)c(NS(=O)(=O)c4ccc(F)cc4)c3)cc2s1 | A549 | nM | 410
COc1ncc(-c2ccc3nc(NC(=O)NCCN4CCCCC4)sc3c2)cc1NS(=O)(=O)c1ccc(F)cc1 | A549 | nM | 330

Give recorded IC50. COc1ncc(-c2ccc3nc(NC(=O)NCCN4CCN(C)CC4)sc3c2)cc1NS(=O)(=O)c1ccc(F)cc1
550

Answer with reported IC50 of COc1ncc(-c2ccc3nc(NC4CC4)sc3c2)cc1NS(=O)(=O)c1ccc(F)cc1
1330

Provide only the value of recorded IC50 for COc1ncc(-c2ccc3nc(NC(=O)NCCN4CCOCC4)sc3c2)cc1NS(=O)(=O)c1ccc(C)cc1
380

----------
molecular target: PI3-kinase subunit gamma/Phosphoinositide 3-kinase regulatory subunit 5 (Homo sapiens, UniProt P48736); experiment: Inhibition of p110gamma/PIK3R5 (unknown origin) incubated for 40 mins by luciferase based ATP depletion assay
Sequence (P48736 whole entry): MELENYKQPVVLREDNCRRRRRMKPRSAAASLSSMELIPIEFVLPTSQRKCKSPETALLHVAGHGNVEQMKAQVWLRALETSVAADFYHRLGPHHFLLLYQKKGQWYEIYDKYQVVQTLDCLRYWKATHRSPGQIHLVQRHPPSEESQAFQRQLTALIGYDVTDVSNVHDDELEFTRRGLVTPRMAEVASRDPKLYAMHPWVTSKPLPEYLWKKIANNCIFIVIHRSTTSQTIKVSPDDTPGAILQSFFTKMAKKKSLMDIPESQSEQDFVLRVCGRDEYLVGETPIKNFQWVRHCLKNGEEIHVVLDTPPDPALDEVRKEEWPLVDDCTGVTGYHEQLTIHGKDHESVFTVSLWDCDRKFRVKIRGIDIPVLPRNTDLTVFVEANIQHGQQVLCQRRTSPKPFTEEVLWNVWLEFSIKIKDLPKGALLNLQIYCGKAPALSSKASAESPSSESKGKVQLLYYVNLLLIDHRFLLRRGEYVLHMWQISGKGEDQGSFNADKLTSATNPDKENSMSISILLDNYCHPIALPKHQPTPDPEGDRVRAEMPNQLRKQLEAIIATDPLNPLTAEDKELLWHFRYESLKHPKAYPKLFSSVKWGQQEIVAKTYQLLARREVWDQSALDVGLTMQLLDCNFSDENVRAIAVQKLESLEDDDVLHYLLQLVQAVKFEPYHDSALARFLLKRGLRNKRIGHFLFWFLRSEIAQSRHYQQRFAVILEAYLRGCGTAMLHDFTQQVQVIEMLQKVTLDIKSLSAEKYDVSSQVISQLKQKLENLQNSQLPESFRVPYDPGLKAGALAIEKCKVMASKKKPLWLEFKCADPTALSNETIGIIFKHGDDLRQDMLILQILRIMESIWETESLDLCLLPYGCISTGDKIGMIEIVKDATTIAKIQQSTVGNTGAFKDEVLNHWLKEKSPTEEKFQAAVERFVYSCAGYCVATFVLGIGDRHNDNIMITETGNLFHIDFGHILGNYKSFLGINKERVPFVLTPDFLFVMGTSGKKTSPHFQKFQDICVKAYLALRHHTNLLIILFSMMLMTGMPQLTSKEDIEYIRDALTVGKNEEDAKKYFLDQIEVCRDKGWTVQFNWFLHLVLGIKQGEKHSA
Sequence (Q8WYR1 whole entry, further chain): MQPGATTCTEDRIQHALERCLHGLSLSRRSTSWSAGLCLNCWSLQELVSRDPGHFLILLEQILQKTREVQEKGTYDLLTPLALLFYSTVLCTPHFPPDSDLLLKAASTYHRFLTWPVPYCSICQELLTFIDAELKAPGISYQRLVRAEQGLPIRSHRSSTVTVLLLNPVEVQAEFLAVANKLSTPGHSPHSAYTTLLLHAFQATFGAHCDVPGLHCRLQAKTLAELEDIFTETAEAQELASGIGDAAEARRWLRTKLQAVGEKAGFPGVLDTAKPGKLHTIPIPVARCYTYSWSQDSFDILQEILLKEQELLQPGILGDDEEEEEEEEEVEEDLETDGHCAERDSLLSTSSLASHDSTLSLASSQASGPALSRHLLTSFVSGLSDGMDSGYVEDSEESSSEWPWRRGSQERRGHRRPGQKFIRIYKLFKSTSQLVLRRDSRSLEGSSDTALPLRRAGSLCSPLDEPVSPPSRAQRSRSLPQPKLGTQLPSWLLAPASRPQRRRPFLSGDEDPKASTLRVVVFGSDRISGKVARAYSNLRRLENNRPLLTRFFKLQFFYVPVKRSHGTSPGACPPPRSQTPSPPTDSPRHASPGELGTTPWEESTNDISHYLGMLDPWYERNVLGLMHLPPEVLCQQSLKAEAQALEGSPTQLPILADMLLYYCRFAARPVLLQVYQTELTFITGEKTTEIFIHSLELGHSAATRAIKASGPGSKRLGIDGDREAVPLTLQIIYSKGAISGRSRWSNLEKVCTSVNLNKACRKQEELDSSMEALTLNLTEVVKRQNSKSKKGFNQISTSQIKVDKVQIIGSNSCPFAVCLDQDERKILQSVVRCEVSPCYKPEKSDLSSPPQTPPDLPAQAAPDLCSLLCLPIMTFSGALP
readoutType: IC50 (µM)
The reply should be a number in µM, with the unit left off.

Let me know recorded IC50 for CCN(CC)CCNC(=O)Nc1nc2ccc(-c3cnc(OC)c(NS(=O)(=O)c4ccc(F)cc4)c3)cc2s1 , thanks.
0.011

----------
test: Acute toxicity in mouse dosed orally once daily and observed for 7 days by up and down procedure; assay type: organism-based; conditions: in vivo, po
Each record here notes measured LD50 at 168 h.
All answers are understood in mg/kg, so give the number only.

Known LD50 at 168 h results, listed for orientation:
entrySmiles | readoutType | unitsOfMeasure | endpointResult
COc1ncc(-c2ccc3nc(NC(=O)NCCN4CCN(C)CC4)sc3c2)cc1NS(=O)(=O)c1ccc(F)cc1 | LD50 at 168 h | mg/kg | 300
CNC(=O)Nc1nc2ccc(-c3cnc(OC)c(NS(=O)(=O)c4ccc(F)cc4)c3)cc2s1 | LD50 at 168 h | mg/kg | 40
COc1ncc(-c2ccc3nc(NC(=O)NCCN4CCCC4)sc3c2)cc1NS(=O)(=O)c1ccc(F)cc1 | LD50 at 168 h | mg/kg | 300
CCN(CC)CCNC(=O)Nc1nc2ccc(-c3cnc(OC)c(NS(=O)(=O)c4ccc(F)cc4)c3)cc2s1 | LD50 at 168 h | mg/kg | 320

// next item, LD50 at 168 h requested
Provide LD50 at 168 h value for the following compound: CC(=O)Nc1nc2ccc(-c3cnc(Cl)c(NS(=O)(=O)c4ccc(F)cc4)c3)cc2s1
20

FYI, the data here is from ChEMBL document CHEMBL3612008.
